Target: WD repeat-containing protein 5 (Homo sapiens)
Experiment: Binding affinity to recombinant full-length human N-terminal His6-tagged WDR5 (1 to 334 residues) expressed in Escherichia coli BL21 (DE3) by surface plasmon resonance analysis
pKd: −log10 of the molar value.

>  <RECORD_SMILES>
CCCCOc1ccc(S(=O)(=O)Nc2ccc(C(=O)O)cc2)cc1C

>  <pKd>
4.80

$$$$

###

Molecular target: WD repeat-containing protein 5 (Homo sapiens, UniProt P61964)
Test: Displacement of Ac-ARTEVHLRKS-(Ahx)-(Ahx)-K(5-FAM)-NH2 from recombinant full-length human N-terminal His6-tagged WDR5 (1 to 334 residues) expressed in Escherichia coli BL21 (DE3) after 2 hrs by fluorescence polarization assay

>  <RECORD_SMILES>
CCCCOc1ccc(S(=O)(=O)Nc2cccc(C(=O)O)c2)cc1C

>  <UNIT_TAG>
µM

>  <IC50>
30

$$$$
>  <RECORD_SMILES>
O=C(O)c1cc(NS(=O)(=O)c2ccc(Cl)cc2)cc(C(=O)O)c1

>  <UNIT_TAG>
µM

>  <IC50>
22

$$$$
>  <RECORD_SMILES>
CCCCOc1ccc(S(=O)(=O)Nc2ccc(C(=O)O)cc2)cc1C

>  <UNIT_TAG>
µM

>  <IC50>
13

$$$$
>  <RECORD_SMILES>
COc1ccc(S(=O)(=O)Nc2ccc(C(=O)O)cc2)cc1C(C)(C)C

>  <UNIT_TAG>
µM

>  <IC50>
48

$$$$
>  <RECORD_SMILES>
CCCCOc1ccc(S(=O)(=O)Nc2ccccc2C(=O)O)cc1C

>  <UNIT_TAG>
µM

>  <IC50>
22

$$$$
